Entries and their measured MIC (μg/mL) C. diversus follow.
Test system: Citrobacter diversus
Assay: MIC against Gram-negative bacteria: Citrobacter diversus
Assay type: cell-based
Settings: Citrobacter diversus; 96-well plate, 5×10^5 CFU/mL, 37° C., 10 h
Method: 1. Gram-negative bacteria, such as E. coli BL21, Pseudomonas aeruginosa, Klebsiella pneumonia, Enterobacter cloacae, Aeromonas hydrophila, Citrobacter diversus, Moraxella catarrhalis, Proteus mirabilis, Proteus vulgaris, Serratia marcescens, etc were streaked on solid LB medium and cultured respectively. Then, typical clones were picked, inoculated into common liquid LB medium respectively, and cultured at 37° C. with shaking at 185 rpm until the McFarland specific turbidity was 0.5. […]
Hi! Could you send only the number? It should be in µg/mL, unit omitted.

Use the examples below as a reference point.
{"columns": ["SUBSTANCE", "ENDPOINT UNIT", "MIC (μg/mL) C. diversus"],
 "data": [
  ["PRT118 (DVDECVGPGGPLCDSLCFNTQGSFHCGCLPGWVLAPNGVSCT; listed as Homo sapiens)", "µg/mL", 12.5],
  ["PRT83 (DDNVCLREPCENYMKCVSVLRFDSSAPFLASASTLFRPIQPIAGLRCRCPPGFTGDFCE; listed as Homo sapiens)", "µg/mL", 25],
  ["PRT19 (CSCDPQGAVRDDCEQMTGLCSCKPGVAGPKCGQCPDGRALGPAGCEA; listed as Homo sapiens)", "µg/mL", 25],
  ["PRT128 (CLPSYCEHGGECSQSWDTFSCDCLGTGYTGETC; listed as Homo sapiens)", "µg/mL", 12.5],
  ["PRT13 (PARSCAEEPCGAGTCKETEGHVICLCPPGYTGEHCN; listed as Homo sapiens)", "µg/mL", 25],
  ["PRT4 (LDVTCNIKNGRCEQFCKNSADNKVVCSCTEGYRLAENQKSCE; listed as Homo sapiens)", "µg/mL", 12.5],
  ["PRT35 (AMDLCARRLLDPCEHQCDPETGRREHRAAGECLCYEGYMKDPVHKHLCI; listed as Homo sapiens)", "µg/mL", 12.5],
  ["PRT82 (CDCYPTGSLSRVCDPEDGQCPCKPGVIGRQCDRCDNPFAEVTTNGCEV; listed as Homo sapiens)", "µg/mL", 50],
  ["PRT31 (CDCYPVGSTSRSCAPHSGQCPCRPGALGRQCNSCDSPFAEVTASGC; listed as Homo sapiens)", "µg/mL", 12.5],
  ["hF VII-EGF1: human coagulation factor VII-EGF1 domain protein, molecular weight about 3.9 kD, recombinant, released from RFP fusion by rTEV (DGDQCASSPCQNGGSCKDQLQSYICFCLPAFEGRNCE; listed as Homo sapiens)", "µg/mL", 12.5]
]}

q: Specify reported MIC (μg/mL) C. diversus for the substance shown: PRT114 (PKYGCNFNNGGCHQDCFEGGDGSFLCGCRPGFRLLDDLVTCA; listed as Homo sapiens)
a: 12.5

q: Specify reported MIC (μg/mL) C. diversus for the substance shown: PRT15 (GDHPCLPNPCHGGAPCQNLEAGRFHCQCPPGRVGPTCA; listed as Homo sapiens)
a: 25

q: Specify reported MIC (μg/mL) C. diversus for the substance shown: PRT1494 (KALCTPRCMNGGLCVTPGFCICPPGFYGVNCD; listed as Homo sapiens)
a: 25

q: Specify reported MIC (μg/mL) C. diversus for the substance shown: PRT142 (PCPGRYLRAGKCAELPNCLDDLGGFACECATGFELGKDGRSCV; listed as Homo sapiens)
a: 12.5

q: Specify reported MIC (μg/mL) C. diversus for the substance shown: PRT34 (ACHPGFYGPDCKLRCSCNNGEMCDRFQGCLCSPGWQGLQCE; listed as Homo sapiens)
a: 25

q: Specify reported MIC (μg/mL) C. diversus for the substance shown: PRT74 (CDCFPHGSHSRTCDMATGQCACKPGVIGRQCNRCDNPFAEVTTLGCEV; listed as Homo sapiens)
a: 12.5

q: Specify reported MIC (μg/mL) C. diversus for the substance shown: PRT76 (EVDLCYSRPCGPHGRCRSREGGYTCLCRDGYTGEHCE; listed as Homo sapiens)
a: 25
